biological target: EGFR L858R (BaF3-L858R cells) (Homo sapiens, UniProt P00533, L858R); construct: host or cells: BaF3; experiment: Cell degradation of EGFR, HTRF assay, BaF3-L858R cells; assay type: cell-based; details: 16 h treatment, maximum percentage of degradation
metric name: Dmax (%)
All answers are understood in %, so give the number only.

molecule: Cc1cc2cc(n1)-c1cnn(C)c1OC[C@H]1CCC(C1)CN1/C(=N/C2=O)Nc2ccc(N3CCN([C@H]4CCN(c5ccc(C6CCC(=O)NC6=O)nc5C)CC4(F)F)CC3)cc21 (some centres unmarked)
assay target: EGFR L858R (BaF3-L858R cells) (Homo sapiens, UniProt P00533, L858R)
Dmax (%): 69.1
//
molecule: Cc1cc2cc(n1)-c1c(C)nn(C)c1OC[C@H]1CC[C@H](C1)CN1/C(=N/C2=O)Nc2ccc(N3CCN(C4CCN(c5cc(F)c([C@H]6CCC(=O)NC6=O)c(F)c5)CC4)C[C@H]3CF)cc21
assay target: EGFR L858R (BaF3-L858R cells) (Homo sapiens, UniProt P00533, L858R)
Dmax (%): 92.5
//
molecule: Cc1cc2cc(n1)-c1c(C)nn(C)c1OC[C@H]1CC[C@H](C1)CN1/C(=N/C2=O)Nc2ccc(N3CCN(C4CCN(c5cc(F)c([C@H]6CCC(=O)NC6=O)c(F)c5)CC4)[C@H](C)C3)cc21
assay target: EGFR L858R (BaF3-L858R cells) (Homo sapiens, UniProt P00533, L858R)
Dmax (%): 87.9

[Q] Name the recorded Dmax for `Cc1cc2cc(n1)-c1cnn(C)c1OC[C@H]1CCC(C1)CN1/C(=N/C2=O)Nc2ccc(N3CCN(C4CCN(c5cc(F)c([C@H]6CCC(=O)NC6=O)c(F)c5)CC4)[C@@H](CO)C3)cc21` .
[A] 82.7

[Q] Would you mind doing Cc1cc2cc(n1)-c1cnn(C)c1OC[C@H]1CC[C@H](C1)CN1/C(=N/C2=O)Nc2ccc(N3CCN([C@@H]4CCN(c5cnc(C6CCC(=O)NC6=O)cc5C)C[C@@H]4F)CC3)cc21 (some centres unmarked) as well?
[A] 99

* * *

As shown below, each of these compounds has a reported Imax (%) value.
biological target: p-EGFR L858R (BaF3-L858R cells) (Homo sapiens, UniProt P00533, L858R); construct: host or cells: BaF3; assay: Cell p-EGFR inhibition assay, HTRF, BaF3-L858R cells; type: cell-based; details: 16 h treatment, maximum percentage of pEGFR inhibition
Report only the number, with the unit % understood.

Below: 3 compounds and their reported Imax (%).
compound: COC[C@H]1CN(c2ccc3c(c2)N2C[C@@H]4CC[C@H](COc5c(c(C)nn5C)-c5cc(cc(C)n5)C(=O)/N=C/2N3)C4)CCN1C1CCN(c2c(C)cc(C3CCC(=O)NC3=O)nc2C)CC1 (some centres unmarked)
assay target: p-EGFR L858R (BaF3-L858R cells) (Homo sapiens, UniProt P00533, L858R)
endpoint result: 98.22
--
compound: COC[C@@H]1CN(c2cc3c(cc2F)N/C2=N\C(=O)c4cc(C)nc(c4)-c4cnn(C)c4OC[C@H]4CCC(C4)CN23)CCN1C1CCN(c2cc(F)c([C@H]3CCC(=O)NC3=O)c(F)c2)CC1
assay target: p-EGFR L858R (BaF3-L858R cells) (Homo sapiens, UniProt P00533, L858R)
endpoint result: 96.2
--
compound: COC[C@H]1CN(c2ccc3c(c2)N2C[C@@H]4CC[C@H](COc5c(c(C)nn5C)-c5cc(cc(C)n5)C(=O)/N=C/2N3)C4)CCN1C1CN(C2CCN(c3cc(F)c([C@H]4CCC(=O)NC4=O)c(F)c3)CC2)C1
assay target: p-EGFR L858R (BaF3-L858R cells) (Homo sapiens, UniProt P00533, L858R)
endpoint result: 94.08

[Q] If you can, please state the reported Imax (%) value of `COC[C@@H]1CN(c2cc3c(cc2C)N/C2=N\C(=O)c4cc(C)nc(c4)-c4c(C)nn(C)c4OC[C@H]4CC[C@H](C4)CN23)CCN1C1CCN(c2cc(F)c([C@H]3CCC(=O)NC3=O)c(F)c2)CC1` .
[A] 98.39

[Q] Please give the result for `COC[C@H]1CN(c2ccc3c(c2)N2C[C@@H]4CC[C@H](COc5c(c(C)nn5C)-c5cc(cc(Cl)n5)C(=O)/N=C/2N3)C4)CCN1C1CCN(c2cc(F)c([C@H]3CCC(=O)NC3=O)c(F)c2)CC1` too.
[A] 94.16
